system: PDE4B2 (Homo sapiens, UniProt Q07343)
Construct: purchased BPS bioscience
Sequence (Q07343 1-564 isoform Q07343-2): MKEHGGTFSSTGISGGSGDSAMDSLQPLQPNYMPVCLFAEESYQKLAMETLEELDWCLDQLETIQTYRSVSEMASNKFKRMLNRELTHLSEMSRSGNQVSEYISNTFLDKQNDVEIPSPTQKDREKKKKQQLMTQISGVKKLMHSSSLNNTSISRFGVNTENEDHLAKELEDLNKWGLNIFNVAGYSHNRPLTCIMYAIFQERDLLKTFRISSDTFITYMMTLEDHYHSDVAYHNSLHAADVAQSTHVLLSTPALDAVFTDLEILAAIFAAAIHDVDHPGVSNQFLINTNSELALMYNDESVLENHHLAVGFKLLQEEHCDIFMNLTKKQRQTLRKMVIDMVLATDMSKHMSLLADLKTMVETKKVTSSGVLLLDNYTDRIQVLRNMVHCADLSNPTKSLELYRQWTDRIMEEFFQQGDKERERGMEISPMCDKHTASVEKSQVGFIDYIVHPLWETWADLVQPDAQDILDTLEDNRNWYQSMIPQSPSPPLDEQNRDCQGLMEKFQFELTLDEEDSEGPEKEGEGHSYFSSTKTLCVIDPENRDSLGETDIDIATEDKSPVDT
procedure details: In vitro PDE4B2 enzyme inhibitory activity (AMP-Glo)
Format: biochemical
condition description: PDE4B2 enzyme inhibition; read-out: PDE4B2 IC50
result type: IC50

[in] Return reported IC50; argument: COC1(c2ccc(Cl)c(F)c2)CN(c2nc3c(c(NC4CCOCC4)n2)[S+]([O-])CC3)C1 (racemic)
[out] ≤ 2 nM

---
[in] Return reported IC50; argument: CS(=O)(=O)Nc1ccc2c(c1)CN(c1nc3c(c(NC4(CO)CCC4)n1)[S+]([O-])CC3)C2 (racemic)
[out] 2 to 5 nM

[in] Moving on to [2H]C([2H])([2H])OC1(c2ccc(Cl)cc2)CN(c2nc3c(c(NC4CCOCC4)n2)[S+]([O-])CC3)C1 (racemic)
[out] ≤ 2 nM

[in] Moving on to COc1ccc(C2(O)CN(c3nc4c(c(Nc5ccc(CC(=O)O)cc5)n3)[S+]([O-])CC4)C2)cc1Cl (racemic)
[out] 2 to 5 nM

[in] Moving on to N#Cc1ccc2c(c1)CN(c1nc3c(c(NC4(CO)CCC4)n1)[S+]([O-])CC3)C2 (racemic)
[out] 2 to 5 nM

[in] Moving on to CNc1ccc(C2(OC)CN(c3nc4c(c(NC5(CO)CCC5)n3)[S+]([O-])CC4)C2)cc1 (racemic)
[out] ≤ 2 nM

[in] Moving on to COC1(c2ccc(OCC3CC3)cc2)CN(c2nc3c(c(NC4(CO)CCC4)n2)[S+]([O-])CC3)C1 (racemic)
[out] ≤ 2 nM

Source: patent US20260242393A1
